Organism: Homo sapiens
method.notes: Selectivity ratio of Ki for human Vasopressin V1a receptor to Ki for human Vasopressin V2 receptor
assay.endpoint: Ratio Ki

Known results for compounds:
- structure.smiles: "COc1cc(C(=O)N2C[C@]3(C)C[C@H]2CC(C)(C)C3)ccc1-c1cccc(NC(C)=O)c1"
  assay.endpoint: "Ratio Ki"
  numeric.readout: 0.01
- structure.smiles: "CC1(C)C[C@@H]2C[C@@](C)(CN2C(=O)c2ccc(-c3cccc4ccccc34)c(Cl)c2Cl)C1"
  assay.endpoint: "Ratio Ki"
  numeric.readout: 1.56
- structure.smiles: "COc1cc(C(=O)N2C[C@]3(C)C[C@H]2CC(C)(C)C3)ccc1-c1ccccc1Oc1ccccc1"
  assay.endpoint: "Ratio Ki"
  numeric.readout: 0.03
- structure.smiles: "Cc1ccccc1-c1ccc(C(=O)N2C[C@@]3(C)C[C@@H]2CC(C)(C)C3)c(Cl)c1"
  assay.endpoint: "Ratio Ki"
  numeric.readout: 0.01
- structure.smiles: "COc1cc(C(=O)N2C[C@]3(C)C[C@H]2CC(C)(C)C3)ccc1-c1cccc2ncccc12"
  assay.endpoint: "Ratio Ki"
  numeric.readout: 0.03

(1) CC1(C)C[C@@H]2C[C@@](C)(CN2C(=O)c2ccc(-c3cccc4ccccc34)cc2Cl)C1
(2) COc1cc(C(=O)N2C[C@]3(C)C[C@H]2CC(C)(C)C3)ccc1-c1ccccc1-c1ccccc1
Lab notebook, comparison: 1 versus 2 , higher Ratio Ki goes to which? Give the label under which the chosen entry appears.
1
(1: 0.54, 2: 0.01)
